Values compiled from patent US10301261B2.

Some compounds, each annotated with its measured Ki.
testSystem: recombinant RORγ Ligand Binding Domain (LBD) protein (Homo sapiens (Human), UniProt P51449)
Sequence (P51449 269-508): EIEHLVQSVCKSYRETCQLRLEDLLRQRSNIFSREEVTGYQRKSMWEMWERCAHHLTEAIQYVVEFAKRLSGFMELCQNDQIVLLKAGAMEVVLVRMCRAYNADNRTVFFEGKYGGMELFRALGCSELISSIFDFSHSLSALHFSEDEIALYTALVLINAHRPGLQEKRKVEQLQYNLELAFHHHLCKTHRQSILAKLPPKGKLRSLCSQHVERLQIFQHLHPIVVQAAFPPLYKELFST
procedureText: Radio-Ligand RORγ Binding Assay (Assay 1)
measurementParameters: radio-ligand 25-hydroxy [26,27-3H]-cholesterol competition
reportedMetric: Ki

[
  {
    "compound": "CCn1c(CC2CCC(C(F)(F)F)OC2)nc2cc(C(=O)NCc3ccc(S(=O)(=O)CC)cc3)ccc21 (single isomer, unassigned) [BE-56.3]",
    "reportedMetric": "Ki",
    "measValue": "100 to 1000 nM"
  },
  {
    "compound": "CCS(=O)(=O)c1ccc(CNC(=O)c2cnc3c(c2)nc(Cc2ccc(C(F)(F)F)cc2)n3C2CC2)cc1 [AB-3]",
    "reportedMetric": "Ki",
    "measValue": "< 100 nM"
  },
  {
    "compound": "CCS(=O)(=O)c1ccc([C@H](CO)NC(=O)c2ccc3c(c2)nc(O[C@H]2CC[C@H](C(F)(F)F)CC2)n3C2CC2)cc1 [BE-1]",
    "reportedMetric": "Ki",
    "measValue": "< 100 nM"
  },
  {
    "compound": "CCS(=O)(=O)c1ccc(CNC(=O)c2ccc3c(c2)nc(C[C@H]2CC[C@H](OC)CC2)n3C2CC2)cc1 [BE-46.1]",
    "reportedMetric": "Ki",
    "measValue": "< 100 nM"
  },
  {
    "compound": "CCn1c(Cc2ccc(OC(F)F)cc2)cc2cc(C(=O)N[C@@H](CO)c3ccc(S(=O)(=O)CC)cn3)ccc21 [IN-6]",
    "reportedMetric": "Ki",
    "measValue": "< 100 nM"
  },
  {
    "compound": "CCS(=O)(=O)c1ccc([C@H](CO)NC(=O)c2ccc3c(c2)nc(OCC2CCC(F)(F)CC2)n3C2CC2)cc1 [BE-16]",
    "reportedMetric": "Ki",
    "measValue": "< 100 nM"
  },
  {
    "compound": "CCS(=O)(=O)c1ccc(CNC(=O)c2cnc3c(c2)cc(C[C@H]2CC[C@H](C(F)(F)F)CC2)n3C2CC2)cc1 [AI-1]",
    "reportedMetric": "Ki",
    "measValue": "< 100 nM"
  },
  {
    "compound": "CCn1c(CC2CCC(C(F)(F)F)OC2)nc2cc(C(=O)NCc3ccc(S(=O)(=O)CC)cc3)ccc21 (single isomer, unassigned) [BE-56.1]",
    "reportedMetric": "Ki",
    "measValue": "100 to 1000 nM"
  },
  {
    "compound": "CCn1c(Oc2ccc(C(F)(F)F)cc2)nc2cc(C(=O)N[C@@H](CO)c3ccc(S(=O)(=O)CC)cc3)ccc21 [BE-8]",
    "reportedMetric": "Ki",
    "measValue": "< 100 nM"
  }
]

###

testSystem: full-length RORγt in Jurkat cells (Homo sapiens (Human))
procedureText: RORγt 5×RORE Assay in Jurkat Cells (Assay 2)
Format: cell-based
measurementParameters: RORγt 5×RORE Nanoluc reporter
reportedMetric: IC50

[
  {
    "compound": "CCS(=O)(=O)c1ccc(CNC(=O)c2ccc3c(c2)nc(O[C@H]2CC[C@H](C(F)(F)F)CC2)n3CC(C)C)cc1",
    "reportedMetric": "IC50",
    "measValue": "100 to 1000 nM"
  },
  {
    "compound": "CCn1c(C[C@H]2CC[C@H](C(F)(F)F)CC2)cc2cc(C(=O)N[C@@H](CO)c3ccc(S(=O)(=O)CC)cc3)ccc21",
    "reportedMetric": "IC50",
    "measValue": "< 100 nM"
  },
  {
    "compound": "CCS(=O)(=O)c1ccc([C@H](CO)NC(=O)c2ccc3c(c2)cc(Cc2ccc(C(F)(F)F)cc2)n3C2CC2)nc1",
    "reportedMetric": "IC50",
    "measValue": "< 100 nM"
  },
  {
    "compound": "CNS(=O)(=O)c1ccc(CNC(=O)c2ccc3c(c2)nc(C[C@H]2CC[C@H](C(F)(F)F)CC2)n3C2CC2)cc1",
    "reportedMetric": "IC50",
    "measValue": "< 100 nM"
  },
  {
    "compound": "CCn1c(C[C@H]2CC[C@H](C(F)(F)F)CC2)nc2cc(C(=O)NCc3ccc(S(=O)(=O)CC)cc3)ccc21",
    "reportedMetric": "IC50",
    "measValue": "< 100 nM"
  },
  {
    "compound": "CCS(=O)(=O)c1ccc([C@H](CO)NC(=O)c2ccc3c(c2)nc(CO[C@H]2CC[C@H](C(F)(F)F)CC2)n3C2CC2)cc1 (single isomer, unassigned)",
    "reportedMetric": "IC50",
    "measValue": "< 100 nM"
  },
  {
    "compound": "CCS(=O)(=O)c1ccc(CNC(=O)c2ccc3c(c2)nc(Cc2ccc(Cl)cn2)n3C2CC2)cc1",
    "reportedMetric": "IC50",
    "measValue": "> 1000 nM"
  }
]

###

testSystem: recombinant RORγ Ligand Binding Domain (LBD) protein (Homo sapiens (Human), UniProt P51449)
procedureText: Radio-Ligand RORγ Binding Assay (Assay 1)
measurementParameters: radio-ligand 25-hydroxy [26,27-3H]-cholesterol competition
Recorded Ki by entry
reportedMetric: Ki

[
  {
    "molecule": "CNS(=O)(=O)c1ccc(CNC(=O)c2ccc3c(c2)nc(C[C@H]2CC[C@H](C(F)(F)F)CC2)n3C2CC2)cc1 [BE-33]",
    "measValue": "< 100 nM"
  },
  {
    "molecule": "CCn1c(OCC2CC(F)(F)C2)nc2cc(C(=O)N[C@@H](CO)c3ccc(S(=O)(=O)CC)cc3)ccc21 [BE-13]",
    "measValue": "< 100 nM"
  },
  {
    "molecule": "CCS(=O)(=O)c1ccc(CNC(=O)c2ccc3c(c2)nc(C[C@H]2CC[C@H](C(F)(F)F)CC2)n3CC(C)C)cc1 [BE-19.1]",
    "measValue": "< 100 nM"
  },
  {
    "molecule": "CCS(=O)(=O)c1ccc(CNC(=O)c2ccc3c(c2)nc(C(=O)C2CCC(C(F)(F)F)CC2)n3C2CC2)cc1 (stereo not shown) [BE-64]",
    "measValue": "< 100 nM"
  }
]

###

testSystem: full-length RORγt in Jurkat cells (Homo sapiens (Human), UniProt P51449)
Sequence (P51449 other isoform, or with tags, fused parts or gaps): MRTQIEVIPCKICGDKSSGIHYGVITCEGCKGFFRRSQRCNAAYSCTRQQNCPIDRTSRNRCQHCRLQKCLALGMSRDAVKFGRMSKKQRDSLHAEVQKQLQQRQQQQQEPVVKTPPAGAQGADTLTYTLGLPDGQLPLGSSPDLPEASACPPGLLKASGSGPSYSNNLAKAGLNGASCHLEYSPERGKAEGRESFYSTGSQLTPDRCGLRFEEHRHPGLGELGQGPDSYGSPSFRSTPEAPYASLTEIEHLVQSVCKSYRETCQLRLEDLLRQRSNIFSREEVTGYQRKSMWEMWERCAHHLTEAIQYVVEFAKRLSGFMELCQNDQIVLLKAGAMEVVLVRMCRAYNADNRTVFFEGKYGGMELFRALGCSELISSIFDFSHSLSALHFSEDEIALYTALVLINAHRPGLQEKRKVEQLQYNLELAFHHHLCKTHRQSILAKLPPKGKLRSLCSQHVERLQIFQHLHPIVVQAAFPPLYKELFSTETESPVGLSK
procedureText: RORγt 5×RORE Assay in Jurkat Cells (Assay 2)
Format: cell-based
measurementParameters: RORγt 5×RORE Nanoluc reporter
Protocol: [formula] RORγt 5×RORE Assay in Jurkat Cells (Assay 2) Compounds described herein were tested for RORγ inverse agonist activity in a cell-based, transcriptional activity assay. […] (Promega, Cat. # N1021) using KpnI and HindIII restriction sites. […] Luciferase activity in the conditioned supernatants was determined with NanoGlo® assay reagents (Promega, Cat.# N1130).
In this section, each of the molecules is paired with its reported IC50.
reportedMetric: IC50

[
  {
    "molecule": "CCS(=O)(=O)c1ccc(CNC(=O)c2ccc3c(c2)nc(Cc2ccc(C(F)(F)F)cc2)n3CC(F)(F)F)cc1",
    "reportedMetric": "IC50",
    "measValue": "< 100 nM"
  },
  {
    "molecule": "CCn1c(OCC2CC2)nc2cc(C(=O)N[C@@H](CO)c3ccc(S(=O)(=O)CC)cc3)ccc21",
    "reportedMetric": "IC50",
    "measValue": "> 1000 nM"
  },
  {
    "molecule": "CCn1c(Cc2ccc(C(F)(F)F)cn2)cc2cc(C(=O)N[C@@H](CO)c3ccc(S(=O)(=O)CC)cc3)ccc21",
    "reportedMetric": "IC50",
    "measValue": "< 100 nM"
  },
  {
    "molecule": "CCS(=O)(=O)c1ccc(CNC(=O)c2ccc3c(c2)nc(Oc2ccc(C(F)(F)F)cc2)n3C2CC2)cc1",
    "reportedMetric": "IC50",
    "measValue": "< 100 nM"
  },
  {
    "molecule": "CCn1c(OCc2ccc(C(F)(F)F)cc2)nc2cc(C(=O)N[C@@H](CO)c3ccc(S(=O)(=O)CC)cc3)ccc21",
    "reportedMetric": "IC50",
    "measValue": "< 100 nM"
  },
  {
    "molecule": "CCS(=O)(=O)c1ccc(CNC(=O)c2cnc3c(c2)cc(C[C@H]2CC[C@H](C(F)(F)F)CC2)n3C2CC2)cc1",
    "reportedMetric": "IC50",
    "measValue": "< 100 nM"
  },
  {
    "molecule": "CCS(=O)(=O)c1ccc([C@H](CO)NC(=O)c2ccc3c(c2)nc(OCC2CCC(F)(F)CC2)n3C2CC2)cc1",
    "reportedMetric": "IC50",
    "measValue": "< 100 nM"
  },
  {
    "molecule": "CCn1c(O[C@H]2CC[C@H](C(F)(F)F)CC2)nc2cc(C(=O)NCc3ccc(S(=O)(=O)CC)cc3)ccc21",
    "reportedMetric": "IC50",
    "measValue": "< 100 nM"
  },
  {
    "molecule": "CCn1c(Cc2ccc(C(F)(F)F)cc2)cc2cc(C(=O)NCc3ccc(S(=O)(=O)CC)cc3)ccc21",
    "reportedMetric": "IC50",
    "measValue": "< 100 nM"
  },
  {
    "molecule": "CNS(=O)(=O)c1ccc(CNC(=O)c2ccc3c(c2)nc(C[C@H]2CC[C@H](C(F)(F)F)CC2)n3C2CC2)nc1",
    "reportedMetric": "IC50",
    "measValue": "> 1000 nM"
  },
  {
    "molecule": "CCn1c(CN2CCC(C(F)(F)F)CC2)cc2cc(C(=O)N[C@@H](CO)c3ccc(S(=O)(=O)CC)cn3)ccc21",
    "reportedMetric": "IC50",
    "measValue": "< 100 nM"
  },
  {
    "molecule": "CCS(=O)(=O)c1ccc(CNC(=O)c2ccc3c(c2)nc(Cc2ccc(OC(F)F)cc2)n3C2CC2)cc1",
    "reportedMetric": "IC50",
    "measValue": "< 100 nM"
  },
  {
    "molecule": "CCS(=O)(=O)c1ccc([C@H](CO)NC(=O)c2ccc3c(c2)nc(Cc2ccc(OC(F)(F)F)cc2)n3C2CC2)cc1",
    "reportedMetric": "IC50",
    "measValue": "< 100 nM"
  },
  {
    "molecule": "CCn1c(Cc2ccc(C(F)(F)F)cc2)cc2cc(C(=O)NCc3ccc(S(=O)(=O)CC)cn3)ccc21",
    "reportedMetric": "IC50",
    "measValue": "< 100 nM"
  },
  {
    "molecule": "CCn1c(Cc2ccc(C(F)(F)F)cc2)nc2cc(C(=O)NCc3ccc(S(=O)(=O)CC)cc3)ccc21",
    "reportedMetric": "IC50",
    "measValue": "< 100 nM"
  },
  {
    "molecule": "CCS(=O)(=O)c1ccc(CNC(=O)c2ccc3c(c2)nc(C(=O)c2ccc(C(F)(F)F)cc2)n3C2CC2)cc1",
    "reportedMetric": "IC50",
    "measValue": "< 100 nM"
  },
  {
    "molecule": "CCS(=O)(=O)c1ccc([C@H](CO)NC(=O)c2ccc3c(c2)nc(C[C@H]2CC[C@H](C(F)(F)F)CC2)n3C2CC2)nc1",
    "reportedMetric": "IC50",
    "measValue": "< 100 nM"
  },
  {
    "molecule": "CCS(=O)(=O)c1ccc(CNC(=O)c2ccc3c(c2)nc(C[C@H]2CC[C@@H](C(F)(F)F)CC2)n3CC(C)C)nc1",
    "reportedMetric": "IC50",
    "measValue": "> 1000 nM"
  },
  {
    "molecule": "CCS(=O)(=O)c1ccc([C@H](CO)NC(=O)c2ccc3c(c2)nc(OCc2ccc(C(F)(F)F)cc2)n3C2CC2)cc1",
    "reportedMetric": "IC50",
    "measValue": "< 100 nM"
  },
  {
    "molecule": "CCn1c(C[C@H]2CC[C@H](C(F)(F)F)CC2)cc2cc(C(=O)NCc3ccc(S(=O)(=O)CC)cc3)ccc21",
    "reportedMetric": "IC50",
    "measValue": "< 100 nM"
  },
  {
    "molecule": "CCS(=O)(=O)c1ccc(CNC(=O)c2ccc3c(c2)nc(C[C@H]2CC[C@@H](C(F)(F)F)CC2)n3C2CC2)nc1",
    "reportedMetric": "IC50",
    "measValue": "> 1000 nM"
  },
  {
    "molecule": "CCS(=O)(=O)c1ccc(CNC(=O)c2ccc3c(c2)nc(C[C@H]2CC[C@@H](OC)CC2)n3C2CC2)cc1",
    "reportedMetric": "IC50",
    "measValue": "> 1000 nM"
  },
  {
    "molecule": "CCn1c(Oc2ccc(C(F)(F)F)cc2)nc2cc(C(=O)N[C@@H](CO)c3ccc(S(=O)(=O)CC)cc3)ccc21",
    "reportedMetric": "IC50",
    "measValue": "< 100 nM"
  },
  {
    "molecule": "CCS(=O)(=O)c1ccc([C@H](CO)NC(=O)c2ccc3c(c2)nc(COC2CCC(C(F)(F)F)CC2)n3C2CC2)cc1 (single isomer, unassigned)",
    "reportedMetric": "IC50",
    "measValue": "< 100 nM"
  },
  {
    "molecule": "CCS(=O)(=O)c1ccc(CNC(=O)c2ccc3c(c2)nc(Cc2ccc(C(F)(F)F)cc2)n3C2CC2)cc1",
    "reportedMetric": "IC50",
    "measValue": "< 100 nM"
  },
  {
    "molecule": "CS(=O)(=O)c1ccc(CNC(=O)c2ccc3c(c2)nc(C[C@H]2CC[C@H](C(F)(F)F)CC2)n3C2CC2)cc1",
    "reportedMetric": "IC50",
    "measValue": "< 100 nM"
  },
  {
    "molecule": "CCn1c(Oc2ccc(OC(F)(F)F)cc2)nc2cc(C(=O)N[C@@H](CO)c3ccc(S(=O)(=O)CC)cc3)ccc21",
    "reportedMetric": "IC50",
    "measValue": "< 100 nM"
  },
  {
    "molecule": "CCS(=O)(=O)c1ccc([C@H](CO)NC(=O)c2ccc3c(c2)cc(CN2CCC(C(F)(F)F)CC2)n3C2CC2)cc1",
    "reportedMetric": "IC50",
    "measValue": "< 100 nM"
  }
]
